Where these numbers come from: patent US20060140929A1

TARGET: thrombin
PROCEDURE TEXT: cell-based or functional assay
ASSAY READOUT: Relative Activity (ratio of variant IC50/WT IC50), chromogenic thrombin inhibition assay (ratio)
Answers are plain numbers, in ratio.

                                     binder  readout_number
0  hirudin mutein M 15 (I29A L30T) (other) VVYTDCTESGQNLCLCEGSVVCGQGNKCATGSDGEKNQCVTGEGTPKPESHNDGDFEEIPEEYLQ            1.21
1  hirudin mutein M 57 (I29Q) (other) VVYTDCTESGQNLCLCEGSVVCGQGNKCQLGSDGEKNQCVTGEGTPKPESHNDGDFEEIPEEYLQ               1

For the next question, use this binder.
Dear colleague, please send me the reported Relative Activity (ratio of variant IC50/WT IC50), chromogenic thrombin inhibition assay for hirudin mutein M 43 (V21G) (other) VVYTDCTESGQNLCLCEGSVGCGQGNKCILGSDGEKNQCVTGEGTPKPESHNDGDFEEIPEEYLQ when you can.
1
